Listed compounds paired with reported EC50
- System: mouse Nurrl receptor (Mus musculus, UniProt Q06219)
- Construct: a cell line (N2A) endogenously expressing the mouse Nurrl receptor
- Sequence (Q06219 whole entry): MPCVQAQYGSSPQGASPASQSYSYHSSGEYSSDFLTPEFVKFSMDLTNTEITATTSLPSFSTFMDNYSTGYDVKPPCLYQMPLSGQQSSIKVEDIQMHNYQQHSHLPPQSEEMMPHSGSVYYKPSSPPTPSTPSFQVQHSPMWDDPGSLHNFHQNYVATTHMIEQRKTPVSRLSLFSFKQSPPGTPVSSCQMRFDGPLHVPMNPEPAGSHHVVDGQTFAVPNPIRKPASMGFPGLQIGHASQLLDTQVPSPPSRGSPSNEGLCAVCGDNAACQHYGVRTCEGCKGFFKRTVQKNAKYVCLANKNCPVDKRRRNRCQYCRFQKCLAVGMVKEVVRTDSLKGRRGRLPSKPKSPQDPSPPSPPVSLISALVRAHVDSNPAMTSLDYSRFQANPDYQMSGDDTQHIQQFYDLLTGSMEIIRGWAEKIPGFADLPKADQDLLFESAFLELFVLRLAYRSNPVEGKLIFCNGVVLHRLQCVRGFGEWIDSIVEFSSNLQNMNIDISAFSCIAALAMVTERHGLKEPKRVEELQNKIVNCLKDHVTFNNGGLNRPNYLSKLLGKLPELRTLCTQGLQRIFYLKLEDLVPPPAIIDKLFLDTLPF
- Experiment Notes: in vitro activity on N2A cells (NBRE-luciferase reporter)
- Assay Setup: N2A-8NBRE-luciferase cells, 24 hours incubation with the products

{"Chemical String": "Cc1ccn2cc(C(=O)c3ccccc3)nc2c1", "EC50 / nM": 1.2}
{"Chemical String": "O=C(c1ccccc1)c1cn2ccccc2n1", "EC50 / nM": 31}
